Target: DCN1-like protein 1/NEDD8-conjugating enzyme Ubc12 (Homo sapiens)
Sequence (Q96GG9 whole entry, the tested form may be a part): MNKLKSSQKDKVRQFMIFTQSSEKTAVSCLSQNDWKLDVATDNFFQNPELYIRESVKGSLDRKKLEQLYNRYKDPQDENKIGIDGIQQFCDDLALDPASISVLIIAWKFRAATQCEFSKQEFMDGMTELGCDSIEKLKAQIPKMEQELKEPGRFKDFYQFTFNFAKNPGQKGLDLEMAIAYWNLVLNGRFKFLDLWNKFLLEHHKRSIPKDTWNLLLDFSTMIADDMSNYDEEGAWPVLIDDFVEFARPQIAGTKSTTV
Sequence (P61081 whole entry, further chain, the tested form may be a part): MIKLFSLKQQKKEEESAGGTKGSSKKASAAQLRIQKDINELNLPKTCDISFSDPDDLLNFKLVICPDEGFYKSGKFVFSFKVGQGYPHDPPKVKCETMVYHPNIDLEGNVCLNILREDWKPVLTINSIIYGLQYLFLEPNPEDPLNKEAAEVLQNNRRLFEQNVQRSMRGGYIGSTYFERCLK
Test: Inhibition of GST-tagged DCN1 PONY domain (unknown origin)/human N-terminal acetylated UBC12 (1 to 12 residues) protein-protein interaction incubated for 1 hr by HTRF analysis
Assay type: protein assay
Can you tell me IC50 for the items I'm about to list?
Only the number, expressed in µM, is required.

-- ask Quick one: IC50 of CCc1cc(Sc2nnnn2CCN(C)C)n2nc(SCc3ccccc3)nc2n1 ?
-- reply 0.352

-- ask Continue with Cc1cc(Sc2nnnn2CCN(C)C)n2nc(SCc3ccc([N+](=O)[O-])cc3)nc2n1
-- reply 0.039

-- ask Continue with Cc1cc(Sc2nnnn2CCN(C)C)n2nc(SCc3c(Cl)cccc3Cl)nc2n1
-- reply 0.192

-- ask Continue with Cc1cc(Sc2nnnn2CCN(C)C)n2nc(SCCc3ccccc3)nc2n1
-- reply 0.438

---

Target: DCN1-like protein 1/NEDD8-conjugating enzyme Ubc12 (Homo sapiens)
Assay: Inhibition of GST-tagged DCN1 PONY domain (unknown origin)/human N-terminal acetylated UBC12 (1 to 12 residues) protein-protein interaction incubated for 1 hr by HTRF analysis
Format: protein assay
endpoint: pIC50
Entry type: numeric. Quantity: pIC50, the -log10 of concentration in molar units.

-- ask Quick one: pIC50 of Cc1cc(Sc2nnnn2CCN(C)C)n2nc(SCc3ccccc3Br)nc2n1 ?
-- reply 6.08

-- ask Continue with Cc1cc(Sc2nnnn2CCN(C)C)n2nc(SCC3CCCCC3)nc2n1
-- reply 7.24

-- ask Continue with CC(C)c1cc(Sc2nnnn2CCN(C)C)n2ncnc2n1
-- reply 5.87

-- ask Continue with Cc1cc(Sc2nnnn2CCN(C)C)n2nc(SCCCc3ccccc3)nc2n1
-- reply 6.27

-- ask Continue with CCc1cc(Sc2nnnn2CCN(C)C)n2ncnc2n1
-- reply 6.15

---

Target: DCN1-like protein 1/NEDD8-conjugating enzyme Ubc12 (Homo sapiens)
Assay: Inhibition of biotinylated DCN1 PONY domain (unknown origin)/human N-terminal acetylated UBC12 (1 to 12 residues) protein-protein interaction incubated for 1 hr by TR-FRET analysis
Format: protein assay
endpoint: IC50 (nM)
Only the number, expressed in nM, is required.

-- ask Quick one: IC50 of CCCCN1CCC(N(Cc2ccccc2)C(=O)Nc2ccc(Cl)c(Cl)c2)CC1 ?
-- reply 60
